target desc: Wild type IRF5 (222-467) (human) (UniProt Q13568)
assay protocol: TR-FRET IRF5 dimerization inhibition, WT (222-467), peptide titrated
pIC50: −log10 of the molar value.

- binder: "Ac-KDLMVQWFKDGGPSSGAPPPS-NH2 [Ac-…-NH2 (SEQ ID NO: 8)]"
  comparison operator: "="
  pIC50: 6.10
- binder: "Ac-MIILIISFPKHKDWKVILVK-NH2 [Ac-…-NH2 (SEQ ID NO: 14)]"
  comparison operator: "="
  pIC50: 4.73
- binder: "Ac-PFPPLPIGEEAPKDDMVRFFKDLHQYLNVV-NH2 [Ac-…-NH2 (SEQ ID NO: 10)]"
  comparison operator: "="
  pIC50: 6.46
- binder: "XMIILIISFPKHKDWKVILVK (N-terminal FITC-Aha (fluorescein isothiocyanate on amino hexanoic acid), C-terminal amide (NH2)) [FITC-Aha-…-NH2 (SEQ ID NO: 17)]"
  comparison operator: "="
  pIC50: 5.28
- binder: "XIRLQISNPYLKFIPLKRAIWLIK (N-terminal FITC-Aha (fluorescein isothiocyanate on amino hexanoic acid), C-terminal amide (NH2)) [FITC-Aha-…-NH2 (SEQ ID NO: 16)]"
  comparison operator: "="
  pIC50: 4.33
- binder: "Ac-IRLQISNPDLKDLMVQWFKDGGPSSGAPPPS-NH2 [Ac-…-NH2 (SEQ ID NO: 9)]"
  comparison operator: "="
  pIC50: 5.85
- binder: "Ac-YLKFIPLKRAIWLIK-NH2 [Ac-…-NH2 (SEQ ID NO: 23), control CPP designed not to bind IRF5]"
  comparison operator: "<"
  pIC50: 4.12
